Taken from ChEMBL document CHEMBL4834420.

List of half-life values.
assayExplanation: Half-life in Beagle dog
Assay type: ADME, Canis lupus familiaris
details: in vivo
Numbers only; they are read as h.

CCn1c(-c2cnc(C)nc2)nc2c(O[C@H]3CCN(C(=O)C4CCOCC4)C3)ncnc21 :: 1.9
CCn1c(-c2cnc(C)nc2)nc2c(O[C@H]3CCN(C(=O)N4CC(OC)C4)C3)ncnc21 :: 1.2

Query :: What measured half-life goes with `CCn1c(-c2cnc(C)nc2)nc2c(N[C@H]3CCN(C(=O)N4CC(OC)C4)C3)ncnc21` ?
Result :: 1.7

Query :: Given the compound `CCn1c(-c2cnc(C)nc2)nc2c(O[C@H]3CCN(C(=O)C4CCC4)C3)ncnc21` , what is its reported half-life?
Result :: 1.1

Query :: I have this compound here, `CCn1c(-c2cnc(C)nc2)nc2c(O[C@H]3CCN(C(=O)C4CC4)C3)ncnc21` , and I need its recorded half-life.
Result :: 1.3
